Data credit: PubChem BioAssay AID1159580

Assay: chemical genetic growth profiling, strain panel (AID 1159580);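 further: tested at 20 µM; growth read once vehicle control cultures reached saturation at 30 °C; 1 = growth at the plate median or of vehicle wells; lower values mean less growth of the strain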
Conditions: S. cerevisiae deletion strains, growth OD, locus YMR001C, strain CDC5, active compounds read low
Hit rate of the full screen: of about 5,500 compounds, about 2,000 (36%) were called active. About 18% were inconclusive and are not listed. The list shows a part of the results.

{"smilesEntry": "CC(C)c1cccc(C(C)C)c1OC(=O)NC(=O)c1c(Cl)cccc1Cl", "normalized growth": 0.986}
{"smilesEntry": "O=C(Nc1ccccc1Sc1ccc(C(F)(F)F)cc1[N+](=O)[O-])C(Cl)Cl", "normalized growth": 0.998}
{"smilesEntry": "N/C(=N/OCc1c(F)cccc1Cl)c1ccc(Cl)cc1", "normalized growth": 0.916}
{"smilesEntry": "Cc1oc(C(C)(C)C)cc1-c1cc(NC(=O)c2ccccc2)n[nH]1", "normalized growth": 0.95}
{"smilesEntry": "CC(C)(C)c1ccc(-c2cc(NC(=O)c3ccc(Cl)cc3)n[nH]2)cc1", "normalized growth": 1}
{"smilesEntry": "COc1cc(C2SCCS2)cc(Br)c1OC(=O)NC(=O)c1c(Cl)cccc1Cl", "normalized growth": 0.962}
